- method: in vitro
- condition-notes: human, hela cells, % viability
assay-metric: viability at 28.5 h, 10 µM (%)
Form entry: value (%) — number only.

# compound, unit-label, viability at 28.5 h, 10 µM
rows = [
    ("Nc1ncc(-c2cccc(CO)c2)nc1NC1CCCCC1", "%", 101),
    ("CC(=O)NC[C@H]1CN(c2ccc(-c3cc4ccccc4n3C(=O)OC(C)(C)C)c(F)c2)C(=O)O1", "%", 98.1),
    ("CC(=O)N1CCc2sccc2C1c1ccc(NC(=O)c2ccc(F)cc2)cc1 (centres unmarked)", "%", 89),
    ("Cc1nc(CN2CCCC3(CCN(C(=O)c4cc(F)c(F)cc4F)C3)C2)cs1 (centres unmarked)", "%", 119),
]

Lab note: next compound to report on.
For record Sc1nnc(CSCc2ccccc2Cl)n1-c1ccccc1 the listed viability at 28.5 h, 10 µM is 100

----------
We begin with a simple list: items and their reported viability at 28.5 h, 10 µM.
- method: in vitro
- condition-notes: human, hela cells, % viability
Form entry: value (%) — number only.

Field: example entries. Status: answers known.
# compound, unit-label, viability at 28.5 h, 10 µM
records = [
    ("Cn1cc(C2c3ccccc3C(=O)N2CC(=O)O)c2ccccc21 (stereo not drawn)", "%", 90.2),
    ("COc1ccc2cc(C(=O)NCCn3ccnc3C)n(C)c2c1", "%", 94.1),
    ("COCCn1nc(C(=O)N2CCCc3ccccc32)ccc1=O", "%", 85.1),
    ("Cc1ccc2nc(CN3CCC(CNc4ccccn4)C3)cc(=O)n2c1 (stereo not drawn)", "%", 83.7),
]

For record Cc1cc(C)c2cc(C)c3nn(CC(=O)N(C)C)c(=O)n3c2c1 the listed viability at 28.5 h, 10 µM is 81.8

For record O=C(CCCc1ccccc1)Nc1ccc(O)cc1C(=O)O the listed viability at 28.5 h, 10 µM is 99.7

For record CC(=O)NC(CC(=O)N1CCCC(n2cccn2)C1)c1cccs1 (stereo not drawn) the listed viability at 28.5 h, 10 µM is 94.6

For record COc1cc(C)c(CN2CCN(C(=O)COc3cc4ccccc4cc3C(=O)O)CC2)cc1OC the listed viability at 28.5 h, 10 µM is 99.6

For record CCCNC(=O)CSc1ncccc1C(=O)O the listed viability at 28.5 h, 10 µM is 78.6

For record Cc1cc(NS(=O)(=O)c2ccc(N3CCOCC3)nc2)n(C)n1 the listed viability at 28.5 h, 10 µM is 117

For record NC(=O)c1ccccc1NC(=O)c1ccc2ccccc2c1 the listed viability at 28.5 h, 10 µM is 90.8

For record CCN(CC)CCN(C(=O)NCCCSC)C(C)c1ccc(OC)c(OC)c1 (stereo not drawn) the listed viability at 28.5 h, 10 µM is 94.3

----------
- method: in vitro
- condition-notes: human, hela cells, % viability
We begin with a simple list: items and their reported viability at 28.5 h, 10 µM.

# molecule, result
data = [
    ("O=C(O)CCCn1cc(NC(=O)c2cccs2)cn1", "88.1%"),
    ("COc1ccc(-c2nnc([C@H]3CCN(C(=O)C4CC4)C3)o2)cc1", "89.6%"),
    ("O=C(C1CCCCC1)N1CCC(c2nnc(-c3ccsc3)o2)CC1", "104%"),
    ("CCc1nccn1CC(=O)NCC(C)n1nc(C)cc1C (stereo not shown)", "80.4%"),
]

For record CN(C)CCSc1cc(N2CCCC2)ncn1 the listed viability at 28.5 h, 10 µM is 116%

For record Cc1nn(C)cc1-c1cncn1CC(C)Oc1ccccc1Cl (stereo not shown) the listed viability at 28.5 h, 10 µM is 83.8%

For record CCC(Sc1nc(C)cc(C)n1)C(=O)N1c2ccccc2Sc2ccccc21 (stereo not shown) the listed viability at 28.5 h, 10 µM is 92.9%

----------
- method: in vitro
- condition-notes: human, hela cells, % viability
We begin with a simple list: items and their reported viability at 28.5 h, 10 µM.
Form entry: value (%) — number only.

Field: example entries. Status: answers known.
# compound, viability at 28.5 h, 10 µM, %
records = [
    ("CCOc1cccc(CNc2ccc(O)cc2)c1OCc1ccccc1Cl [CBK074473]", 87.7),
    ("COc1ccc(-c2cc3ncnc(Sc4nnnn4CC4CCCO4)c3s2)cc1 (stereo not shown) [CBK297157]", 95.9),
]

For record CCN(C(=O)c1cnccn1)C(CC1CCCCC1)c1ccccc1 (stereo not shown) [CBK061638] the listed viability at 28.5 h, 10 µM is 92.9

For record Cc1cc(=O)n2c(C(=O)Nc3ccc(C(=O)O)cc3)c(C(=O)Nc3cccc(C)c3C)sc2n1 [CBK297547] the listed viability at 28.5 h, 10 µM is 89.5

For record NC(=O)Cn1cc(CN2CCC(c3ccccc3)C2)c2ccccc21 (stereo not shown) [CBK282803] the listed viability at 28.5 h, 10 µM is 92.3

For record COc1cc(C(C)c2cc3c(cc2O)OCO3)cc(OC)c1OC (stereo not shown) [CBK200103] the listed viability at 28.5 h, 10 µM is 36.3

For record Cc1ccccc1/N=C1/NC(=O)/C(=C/c2ccc([N+](=O)[O-])o2)S1 [CBK094584] the listed viability at 28.5 h, 10 µM is 96.6

For record CC(=O)c1ccc(N(C)C)cc1 [CBK033830] the listed viability at 28.5 h, 10 µM is 106

For record Nc1nc(-c2ccccc2)nn1C(=O)CCc1ccccc1 [CBK074471] the listed viability at 28.5 h, 10 µM is 95.9

For record O=C1CC(N2CCN(C/C=C/c3ccccc3)CC2)C(=O)N1CCc1ccccc1 (stereo not shown) [CBK262082] the listed viability at 28.5 h, 10 µM is 83.6

----------
We begin with a simple list: items and their reported viability at 28.5 h, 10 µM.
- method: in vitro
- condition-notes: human, hela cells, % viability
Form entry: value (%) — number only.

Field: example entries. Status: answers known.
# molecule, assay-metric, unit-label, measured-number
measured = [
    ("O=C1CCC(=O)N1CCOc1nccnc1OC1CCN(CCc2ccccn2)CC1", "viability at 28.5 h, 10 µM", "%", 99.5),
    ("O=C(CC[C@@H]1CNC(=O)[C@@H]2C[C@H](NC(=O)c3ccco3)CN12)Nc1ccccc1", "viability at 28.5 h, 10 µM", "%", 91.1),
    ("O=S1(=O)Cc2ccccc2C(Oc2cncc(N3CCNCC3)n2)C1 (centres unmarked) [CBK172344T]", "viability at 28.5 h, 10 µM", "%", 91.2),
    ("CCOC(=O)c1nc2c(n1C)[C@H]1[C@H](O)[C@H](O)C[C@H]1C1(CCC1)N2", "viability at 28.5 h, 10 µM", "%", 107),
]

Lab note: next molecule to report on.
For record O=C(Nc1cnccn1)c1ccc(Cl)cc1Cl the listed viability at 28.5 h, 10 µM is 85.5

----------
We begin with a simple list: items and their reported viability at 28.5 h, 10 µM.
- method: in vitro
- condition-notes: human, hela cells, % viability
Form entry: value (%) — number only.

For record CCc1cccc(CN2CCC(CNC(=O)Nc3ccc(Cl)cc3)CC2)c1 the listed viability at 28.5 h, 10 µM is 93.4

----------
We begin with a simple list: items and their reported viability at 28.5 h, 10 µM.
- method: in vitro
- condition-notes: human, hela cells, % viability
Put down the number, then write its unit next to it.

Field: example entries. Status: answers known.
# molecule, assay-metric, result
data = [
    ("Cc1cc(=O)oc2cc(OC(=O)C(Cc3ccccc3)N3C(=O)c4ccccc4C3=O)ccc12 (stereo not shown) [CBK033943]", "viability at 28.5 h, 10 µM", "91.1%"),
    ("FC(F)(F)c1cccc(-c2cn3ccnc3c(NCc3ccncc3)n2)c1 [CBK066632]", "viability at 28.5 h, 10 µM", "97.8%"),
    ("C=C[C@H]1C[N@@]2CC[C@H]1C[C@@H]2CNS(=O)(=O)c1cccc(C#N)c1 [CBK288750]", "viability at 28.5 h, 10 µM", "103%"),
]

For record Nc1nc(N)nc(-c2ccc(-c3nc(N)nc(N)n3)cc2)n1 [CBK261494] the listed viability at 28.5 h, 10 µM is 90.4%

For record O=c1scnn1Cc1nc(-c2ccsc2)no1 [CBK306438] the listed viability at 28.5 h, 10 µM is 83.4%

For record Cn1cc(C(=O)N2CCC(c3ccccc3)C2)c2ccccc2c1=O (stereo not shown) [CBK281921] the listed viability at 28.5 h, 10 µM is 103%

For record O=C(Nc1sc2c(c1C(=O)NCCc1ccccc1)CCC2)c1sc2ccccc2c1Cl [CBK266379] the listed viability at 28.5 h, 10 µM is 105%

For record Cc1ccc(C(=O)NC(=O)CSc2nc(N)n[nH]2)cc1 [CBK267523] the listed viability at 28.5 h, 10 µM is 90.9%

For record CN(C)c1ccc(-c2noc([C@@H]3CCCN3C3CCOCC3)n2)cn1 [CBK288903] the listed viability at 28.5 h, 10 µM is 93.8%

For record COc1ccc(-n2c3c(cc(C(=O)Nc4ccccc4Br)c2=O)C(=O)CCC3)cc1 [CBK293945] the listed viability at 28.5 h, 10 µM is 95.7%

For record Cc1cccc(OCc2nnc(SCC(=O)NC3CCCCC3)o2)c1 [CBK264652] the listed viability at 28.5 h, 10 µM is 96.3%
